pIC50: −log10 of the molar value.
# merged literature set: pIC50 with High affinity nerve growth factor receptor (Homo sapiens, UniProt P04629)
assay_readout: pIC50

[[record]]
compound = "COCCCc1cc(F)c(C(F)(F)F)cc1NC(=O)Nc1c(C)c(OC[C@H](O)CO)nn1-c1ccccc1"
assay_readout = "pIC50"
relation_qualifier = ">"
reading = 7.00

[[record]]
compound = "Fc1cc(F)cc(COc2ccc3[nH]nc(C#Cc4ccccn4)c3c2)c1"
assay_readout = "pIC50"
relation_qualifier = "="
reading = 7.50

[[record]]
compound = "Cc1cnc(-c2ccccc2)c(NC(=O)N[C@@H]2c3ccccc3C(C)(C)C[C@H]2O)c1"
assay_readout = "pIC50"
relation_qualifier = "≥"
reading = 7.30

[[record]]
compound = "CN1CCc2occ(C(=O)Nc3ccc(N4CCOCC4)cc3)c2C1=O"
assay_readout = "pIC50"
relation_qualifier = "="
reading = 6.95

[[record]]
compound = "COc1ccn(-c2ccc(F)cc2)c(=O)c1C(=O)Nc1ccc(Oc2ccnc3cc(OCCCN4CCOCC4)c4c(c23)OCCO4)cc1Cl"
assay_readout = "pIC50"
relation_qualifier = ">"
reading = 7.30

[[record]]
compound = "NC(=O)c1ccc(-c2cc(O[C@H]3CCOC3)c3c(N)n[nH]c3c2)cc1N1CCN(c2cccnc2)CC1"
assay_readout = "pIC50"
relation_qualifier = "="
reading = 8.10

[[record]]
compound = "COCCN1C[C@@H](NC(=O)Nc2cc(C(C)C)nn2-c2ccccc2)[C@H](c2cccc(F)c2)C1 (relative stereo)"
assay_readout = "pIC50"
relation_qualifier = ">"
reading = 7.00

[[record]]
compound = "COc1ccc(COc2ccc(Cn3cnc4cc(N5CCOCC5)cnc43)cc2OC)cn1"
assay_readout = "pIC50"
relation_qualifier = "="
reading = 7.05

[[record]]
compound = "CCOc1nc(N2CCN(C(C)=O)CC2)ccc1NC(=O)c1coc2c1C(=O)N(CCCCO)CC2"
assay_readout = "pIC50"
relation_qualifier = "="
reading = 8.33

[[record]]
compound = "COCCCc1cc(Cl)c(Cl)cc1NC(=O)Nc1c(C)c(OC[C@@H]2CCCN(C)C2)nn1-c1ccccc1"
assay_readout = "pIC50"
relation_qualifier = ">"
reading = 7.00

[[record]]
compound = "Fc1nc(NC2CCC(F)(F)CC2)ccc1Cc1c[nH]c2ncnc(NC3CC3)c12"
assay_readout = "pIC50"
relation_qualifier = ">"
reading = 6.00

[[record]]
compound = "CN1CCN(CCCOc2cc3nccc(Oc4ccc(NC(=O)c5cn(C)c(=O)n(-c6ccc(F)cc6)c5=O)cc4F)c3c3c2OCCO3)CC1"
assay_readout = "pIC50"
relation_qualifier = ">"
reading = 7.30

[[record]]
compound = "COCCN1C[C@@H](NC(=O)Nc2c(C)c(C(C)(C)CO)nn2-c2ccccc2)[C@H](c2ccccc2)C1"
assay_readout = "pIC50"
relation_qualifier = ">"
reading = 7.00

[[record]]
compound = "Fc1cc(F)cc(Cc2ccc3[nH]nc(C#Cc4ccccn4)c3c2)c1"
assay_readout = "pIC50"
relation_qualifier = "="
reading = 7.47


---

// merged dataset of IC50 values, system = High affinity nerve growth factor receptor (Homo sapiens, UniProt P04629), multiple refs
assay_readout: IC50

[[record]]
compound_structure = "COc1cncc(Nc2ccc(C(=O)c3c[nH]c4ncnc(NC(C)C)c34)c(F)n2)c1"
assay_readout = "IC50"
reading = "< 10 nM"

[[record]]
compound_structure = "COCCN1C[C@@H](NC(=O)Nc2ccc(S(C)(=O)=O)nc2-c2ccccc2)[C@H](c2ccc(F)c(F)c2)C1"
assay_readout = "IC50"
reading = "< 100 nM"

[[record]]
compound_structure = "COc1ncnc2[nH]cc(Cc3cnc(NCc4ccc(C(F)(F)F)nc4)c(F)c3)c12"
assay_readout = "IC50"
reading = "≤ 10000 nM"

[[record]]
compound_structure = "CN1CCc2occ(C(=O)Nc3ccc4c(cnn4C)c3)c2C1=O"
assay_readout = "IC50"
reading = "189 nM"

